Experiment Summary: Evaluated for the activation of human thrombin receptor measured by platelet aggregation
pEC50: −log10 of the molar value. Where a SMILES comes first, the peptide text is derived from it. [ ]: non-standard residue; d: D form. Phg = N[C@H](C(=O)O)c1ccccc1
Measure: pEC50

Please give the measured pEC50 for this molecule: CC(C)C[C@H](NC(=O)[C@H](CC(C)C)NC(=O)[C@@H](NC(=O)[C@H](C)N)c1ccccc1)C(=O)N[C@@H](CCCNC(=N)N)C(N)=O (H-A[Phg]LLR-NH2)
< 3.10

Please give the measured pEC50 for this molecule: CC(C)C[C@H](NC(=O)[C@@H](CC(C)C)NC(=O)[C@H](Cc1ccccc1)NC(=O)[C@@H](N)CO)C(=O)N[C@@H](CCCNC(=N)N)C(N)=O
< 3.10

Please give the measured pEC50 for this molecule: CC(C)C[C@H](NC(=O)[C@H](CC(C)C)NC(=O)[C@@H](N)Cc1ccccc1)C(=O)N[C@@H](CCCNC(=N)N)C(N)=O (H-FLLR-NH2)
< 3.10

Source listed as BindingDB's records for doi:10.1021/jm00020a029.
